# assayTarget: human recombinant mGluR5 (Homo sapiens)
# assayRemarks: positive modulation of mGluR5, calcium based FLIPR assay
# studyConditions: HEK 293 cell line expressing human recombinant mGluR5; EC50 of the modulation from peak Ca fluorescence signal after glutamate at approx. 5% basal stimulation
pEC50: −log10 of the molar value.
quantityKind: pEC50

- structureSmiles: "CCc1cc(-c2ccc(F)c(C)c2)nn1CC(=O)N1CCC(c2ncc(C)s2)CC1"
  assayTarget: "human recombinant mGluR5 (Homo sapiens)"
  quantityKind: "pEC50"
  numericValue: 6.86

I. Cc1cc(-c2cc(-c3ccccc3)n(CC(=O)N3CCC(c4ncccn4)CC3)n2)ccc1F
II. Cc1nnc(N2CCN(C(=O)Cn3nc(-c4ccc(C)c(F)c4)cc3-c3ccccc3)CC2)o1
Field: lower pEC50 | Options: I / II Kindly give the label for the entry you pick.
I

---

# assayTarget: human recombinant mGluR5 (Homo sapiens)
# assayRemarks: positive modulation of mGluR5, calcium based FLIPR assay
# studyConditions: HEK 293 cell line expressing human recombinant mGluR5; EC50 of the modulation from peak Ca fluorescence signal after glutamate at approx. 5% basal stimulation
# Description: The positive modulation of mGluR5 is measured in a HEK 293 cell line expressing human recombinant mGluR5 and is detected with calcium based FLIPR assay. […] 20 μl of each compound solution are then transferred to the assay plate and the Ca2+ kinetic is measured to determine any intrinsic compound activity. […] The peak height of the Ca release related fluorescence signal (9-66) is used for the EC50. The EC50 of the modulation is calculated over a nonlinear regression with GraphPad Prism (Table 1).
pEC50: −log10 of the molar value.
quantityKind: pEC50

a. Cc1nc2c(s1)CN(C(=O)Cn1nc(-c3ccc(F)c(C)c3)cc1-c1ccccc1)C2 [Example 7.02.020]
b. Cc1nc2c(s1)CN(C(=O)Cn1nc(-c3ccc(C)c(C)c3)cc1-c1ccccc1)C2 [Example 7.02.090]
Just tell me: smaller pEC50 value, a or b ? # reply format: chosen label
b

---

# assayTarget: human recombinant mGluR5 (Homo sapiens, UniProt P41594)
# Sequence (P41594 21-1212): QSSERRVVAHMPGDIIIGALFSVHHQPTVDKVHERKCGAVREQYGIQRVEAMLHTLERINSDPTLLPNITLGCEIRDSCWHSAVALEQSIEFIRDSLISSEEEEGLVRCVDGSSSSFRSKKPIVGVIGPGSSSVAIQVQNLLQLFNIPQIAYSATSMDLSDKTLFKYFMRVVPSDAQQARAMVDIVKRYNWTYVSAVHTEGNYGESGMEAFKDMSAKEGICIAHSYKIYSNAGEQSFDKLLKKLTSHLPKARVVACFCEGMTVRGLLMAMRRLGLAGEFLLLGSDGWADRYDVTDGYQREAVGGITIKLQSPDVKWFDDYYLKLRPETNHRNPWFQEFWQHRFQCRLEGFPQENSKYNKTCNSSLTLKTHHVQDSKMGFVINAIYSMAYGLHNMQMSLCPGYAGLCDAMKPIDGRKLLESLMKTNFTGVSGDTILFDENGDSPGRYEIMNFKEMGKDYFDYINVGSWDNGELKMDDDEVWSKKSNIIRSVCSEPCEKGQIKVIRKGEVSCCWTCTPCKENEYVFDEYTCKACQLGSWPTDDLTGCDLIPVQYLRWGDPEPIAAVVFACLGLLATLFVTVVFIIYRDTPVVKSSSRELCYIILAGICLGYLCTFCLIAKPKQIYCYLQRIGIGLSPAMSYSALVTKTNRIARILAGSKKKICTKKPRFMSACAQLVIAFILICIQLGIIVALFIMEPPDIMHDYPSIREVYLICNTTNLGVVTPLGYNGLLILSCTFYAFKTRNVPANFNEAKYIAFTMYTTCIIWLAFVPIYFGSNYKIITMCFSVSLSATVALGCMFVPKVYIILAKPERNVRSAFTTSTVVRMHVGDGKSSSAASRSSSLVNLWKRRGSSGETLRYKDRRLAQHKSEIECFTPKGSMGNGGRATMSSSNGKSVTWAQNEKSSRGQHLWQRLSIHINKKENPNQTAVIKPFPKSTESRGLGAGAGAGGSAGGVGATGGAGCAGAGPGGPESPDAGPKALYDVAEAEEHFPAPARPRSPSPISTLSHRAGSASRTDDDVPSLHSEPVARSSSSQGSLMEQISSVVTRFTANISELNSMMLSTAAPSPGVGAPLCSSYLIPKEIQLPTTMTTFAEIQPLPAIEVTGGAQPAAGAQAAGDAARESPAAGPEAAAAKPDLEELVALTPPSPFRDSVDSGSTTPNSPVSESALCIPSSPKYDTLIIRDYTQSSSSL
# assayRemarks: positive modulation of mGluR5, calcium based FLIPR assay
# studyConditions: HEK 293 cell line expressing human recombinant mGluR5; EC50 of the modulation from peak Ca fluorescence signal after glutamate at approx. 5% basal stimulation
# Protocol: The positive modulation of mGluR5 is measured in a HEK 293 cell line expressing human recombinant mGluR5 and is detected with calcium based FLIPR assay. […] 20 μl of each compound solution are then transferred to the assay plate and the Ca2+ kinetic is measured to determine any intrinsic compound activity. […] The peak height of the Ca release related fluorescence signal (9-66) is used for the EC50. The EC50 of the modulation is calculated over a nonlinear regression with GraphPad Prism (Table 1).
pEC50: −log10 of the molar value.
quantityKind: pEC50

- compound: "COc1cccc(N2CCN(C(=O)Cn3nc(-c4ccccc4)cc3-c3ccccc3)CC2=O)c1 [Example 7.01.035]"
  assayTarget: "human recombinant mGluR5 (Homo sapiens, UniProt P41594)"
  numericValue: 6.69
- compound: "CCCc1cc(-c2ccc(F)c(C)c2)nn1CC(=O)N1CC=C(c2cc(OC)ncn2)CC1"
  assayTarget: "human recombinant mGluR5 (Homo sapiens, UniProt P41594)"
  numericValue: 7.40
- compound: "N#Cc1ccc(Cl)cc1NC1CCN(C(=O)Cn2nc(-c3ccccc3)cc2-c2ccccc2)CC1"
  assayTarget: "human recombinant mGluR5 (Homo sapiens, UniProt P41594)"
  numericValue: 6.04
- compound: "CCc1cc(-c2ccc(F)c(C)c2)nn1CC(=O)N1CCc2ccc(C(=O)OC)cc2CC1"
  assayTarget: "human recombinant mGluR5 (Homo sapiens, UniProt P41594)"
  numericValue: 6.89
- compound: "COc1ccc(-c2cc(C(C)C)n(CC(=O)N3CCN(c4cccc(OC)c4)C(=O)C3)n2)cc1"
  assayTarget: "human recombinant mGluR5 (Homo sapiens, UniProt P41594)"
  numericValue: 5.92

A. CC(C)NC(=O)Nc1nc2c(s1)CN(C(=O)Cn1nc(-c3ccccc3)cc1-c1ccccc1)CC2
B. CCc1cc(-c2ccc(F)c(C)c2)nn1CC(=O)N1CCC(c2nnc(COC)o2)CC1
Which record would sort first by descending pEC50, A or B ? Respond using the label that marks the chosen record.
B

1. Cc1cc(-c2cc(C(C)C)n(CC(=O)N3CCc4nc(N)sc4CC3)n2)ccc1F
2. Cc1nc2c(s1)CN(C(=O)Cn1nc(-c3ccccc3)cc1-c1ccccc1)C2 [Example 7.01.005]
3. CCc1cc(-c2ccc(F)c(C)c2)nn1CC(=O)N1Cc2cccnc2C1
4. CCCc1cc(-c2ccc(F)c(C)c2)nn1CC(=O)N1CCc2nc(C)oc2CC1
5. CC(=O)Nc1ccc2c(c1)CCN(C(=O)Cn1nc(-c3ccc(F)c(C)c3)cc1-c1ccccc1)CC2
Descending sort on pEC50 required. State the ranking by listing the labels in the requested order.
4, 5, 1, 2, 3
(4: 8.05, 5: 6.96, 1: 6.73, 2: 6.42, 3: 6.06)
